# reported EC50; entries follow
Test system: SREBP
Experiment: Reporter Screening Assay (SRE-luciferase reporter, HepG2)
Format: cell-based
Settings: Homo sapiens; SRE-luciferase reporter HepG2 cells, 24 hours, 0.01 uM to 10 uM; read-out: I: Reporter Screening Assay (Ave EC50 (nM))

| Compound | EC50 |
| --- | --- |
| CC(C)(CO)c1cc(-c2csc(-c3ccc(NC(=O)N4CCC(O)CC4)cc3Cl)c2)ccn1 [Compound I-8926] | < 249 nM |
| CC(C)OC(=O)Nc1ccc(-c2cc(-c3ccnc(C4(CO)CC4)c3)cs2)c(Cl)c1 [Compound I-8980] | < 249 nM |
| CC(C)(C)c1cc(-c2csc(-c3ccc(NC(=O)N4CCC(O)CC4)cc3Cl)c2)ccn1 [Compound I-8736] | 250 to 500 nM |
| CC(C)OC(=O)Nc1ccc(-c2cc(-c3ccnc(CC(C)(C)O)c3)cs2)c(Cl)c1 [Compound I-9051] | > 500 nM |
| CC(C)(CO)c1cc(-c2csc(-c3ccc(NS(=O)(=O)C(F)(F)F)cc3Cl)c2)ccn1 [Compound I-8940] | < 249 nM |
| CC(C)S(=O)(=O)c1ccc(-c2cc(-c3ccnc(C(C)(C)C)c3)cs2)cc1 [Compound I-8728] | 250 to 500 nM |
| CC(C)(C)c1cc(-c2csc(-c3ccc(NC(=O)NC4CCNCC4)cc3Cl)c2)ccn1 [Compound I-8755] | > 500 nM |
| CC(C)OC(=O)Nc1ccc(-c2cc(-c3ccnc(C(C)(C)C)c3)cs2)c(Cl)c1 [Compound I-8741] | < 249 nM |
| CC(C)(C)c1cc(-c2csc(-c3ccc(NC(=O)OCCN4CCCC4)cc3Cl)c2)ccn1 [Compound I-8762] | > 500 nM |
